test system: A549 cells; experiment: Antiproliferative activity, CellTiter Glo assay, A549; conditions: Homo sapiens, A549, 72 h, read-out: IC50 A549
pIC50: −log10 of the molar value.
Recorded measurements of pIC50, one per entry
MEASUREMENT LABEL: pIC50

- COMPOUND: "O=C1CC(c2ccc([N+](=O)[O-])cc2)=NN1c1ccccc1"
  MEASUREMENT LABEL: "pIC50"
  QUALIFIER SIGN: "="
  REPORTED RESULT: 4.40
- COMPOUND: "O=C1CC(c2ccc(Br)cc2)=NN1c1ccc(Br)cc1"
  MEASUREMENT LABEL: "pIC50"
  QUALIFIER SIGN: "="
  REPORTED RESULT: 5.56
- COMPOUND: "O=C1CC(c2ccc(Br)cc2)=NN1c1cc(Cl)cc(Cl)c1"
  MEASUREMENT LABEL: "pIC50"
  QUALIFIER SIGN: "="
  REPORTED RESULT: 5.25
- COMPOUND: "COc1cccc(C2=NN(c3ccccc3)C(=O)C2)c1"
  MEASUREMENT LABEL: "pIC50"
  QUALIFIER SIGN: "<"
  REPORTED RESULT: 4.00
- COMPOUND: "O=C1CC(c2ccc(C(F)(F)F)cc2)=NN1c1ccccc1"
  MEASUREMENT LABEL: "pIC50"
  QUALIFIER SIGN: "="
  REPORTED RESULT: 5.22
- COMPOUND: "O=C1CC(c2cc(F)c(F)c(F)c2F)=NN1c1ccccc1"
  MEASUREMENT LABEL: "pIC50"
  QUALIFIER SIGN: "="
  REPORTED RESULT: 5.07
- COMPOUND: "O=C1CC(c2ccccc2)=NN1c1ccccc1"
  MEASUREMENT LABEL: "pIC50"
  QUALIFIER SIGN: "="
  REPORTED RESULT: 4.99
- COMPOUND: "O=C1CC(c2ccc(Br)cc2)=NN1c1ccccc1"
  MEASUREMENT LABEL: "pIC50"
  QUALIFIER SIGN: "="
  REPORTED RESULT: 5.20
- COMPOUND: "O=C1CC(c2ccccc2)=NN1c1ccc(Br)cc1"
  MEASUREMENT LABEL: "pIC50"
  QUALIFIER SIGN: "="
  REPORTED RESULT: 5.58
- COMPOUND: "CC1=NN(c2ccccc2)C(=O)C1(C)O (centres unmarked) [P1]"
  MEASUREMENT LABEL: "pIC50"
  QUALIFIER SIGN: "<"
  REPORTED RESULT: 4.00
- COMPOUND: "O=C1CC(c2ccc(F)cc2)=NN1c1ccccc1"
  MEASUREMENT LABEL: "pIC50"
  QUALIFIER SIGN: "="
  REPORTED RESULT: 5.02
- COMPOUND: "CCCC1=NN(c2ccccc2)C(=O)C1 [P2]"
  MEASUREMENT LABEL: "pIC50"
  QUALIFIER SIGN: "<"
  REPORTED RESULT: 4.00
- COMPOUND: "O=C1CC(c2ccccc2)=NN1c1ccc(Cl)cc1"
  MEASUREMENT LABEL: "pIC50"
  QUALIFIER SIGN: "="
  REPORTED RESULT: 5.70
- COMPOUND: "CN(C)C/C=C/C(=O)Nc1cc2c(Nc3ccc(F)c(Cl)c3)ncnc2cc1O[C@H]1CCOC1 [PC-1, Afatinib, reference compound]"
  MEASUREMENT LABEL: "pIC50"
  QUALIFIER SIGN: "="
  REPORTED RESULT: 5.07
- COMPOUND: "O=C1CC(c2ccc(F)cc2)=NN1c1ccc(Br)cc1"
  MEASUREMENT LABEL: "pIC50"
  QUALIFIER SIGN: "="
  REPORTED RESULT: 5.57
- COMPOUND: "O=C1CC(c2ccc(Br)cc2)=NN1c1ccc(C(F)(F)F)cc1"
  MEASUREMENT LABEL: "pIC50"
  QUALIFIER SIGN: "="
  REPORTED RESULT: 5.47
- COMPOUND: "COc1ccc(C2=NN(c3ccccc3)C(=O)C2)cc1"
  MEASUREMENT LABEL: "pIC50"
  QUALIFIER SIGN: "="
  REPORTED RESULT: 4.37

* * *

tested on: NCI-H522 cells; assay: Antiproliferative activity, CellTiter Glo assay, NCI-H522; details: Homo sapiens, NCI-H522, 72 h, read-out: IC50 NCIH522
pIC50: −log10 of the molar value.
Recorded measurements of pIC50, one per entry
MEASUREMENT LABEL: pIC50

- COMPOUND: "O=C1CC(c2cc(F)c(F)c(F)c2F)=NN1c1ccccc1 [P12]"
  QUALIFIER SIGN: "="
  REPORTED RESULT: 5.00
- COMPOUND: "O=C1CC(c2ccc(Br)cc2)=NN1c1ccccc1 [P7]"
  QUALIFIER SIGN: "="
  REPORTED RESULT: 5.33
- COMPOUND: "CCCC1=NN(c2ccccc2)C(=O)C1 [P2]"
  QUALIFIER SIGN: "<"
  REPORTED RESULT: 4.00
- COMPOUND: "O=C1CC(c2ccc(F)cc2)=NN1c1ccc(Br)cc1 [P13]"
  QUALIFIER SIGN: "="
  REPORTED RESULT: 5.43
- COMPOUND: "O=C1CC(c2ccc(F)cc2)=NN1c1ccccc1 [P8]"
  QUALIFIER SIGN: "="
  REPORTED RESULT: 4.75
- COMPOUND: "CC1=NN(c2ccccc2)C(=O)C1(C)O (centres unmarked) [P1]"
  QUALIFIER SIGN: "<"
  REPORTED RESULT: 4.00
- COMPOUND: "COc1cccc(C2=NN(c3ccccc3)C(=O)C2)c1 [P10]"
  QUALIFIER SIGN: "<"
  REPORTED RESULT: 4.00
- COMPOUND: "O=C1CC(c2ccc(Br)cc2)=NN1c1ccc(C(F)(F)F)cc1 [P16]"
  QUALIFIER SIGN: "="
  REPORTED RESULT: 5.53
- COMPOUND: "CN(C)C/C=C/C(=O)Nc1cc2c(Nc3ccc(F)c(Cl)c3)ncnc2cc1O[C@H]1CCOC1 [PC-1, Afatinib, reference compound]"
  QUALIFIER SIGN: "="
  REPORTED RESULT: 5.27
- COMPOUND: "O=C1CC(c2ccc([N+](=O)[O-])cc2)=NN1c1ccccc1 [P6]"
  QUALIFIER SIGN: "="
  REPORTED RESULT: 4.39
- COMPOUND: "O=C1CC(c2ccccc2)=NN1c1ccc(Cl)cc1 [P5]"
  QUALIFIER SIGN: "="
  REPORTED RESULT: 5.35
- COMPOUND: "O=C1CC(c2ccccc2)=NN1c1ccccc1 [P3]"
  QUALIFIER SIGN: "="
  REPORTED RESULT: 4.77
- COMPOUND: "COc1ccc(C2=NN(c3ccccc3)C(=O)C2)cc1 [P9]"
  QUALIFIER SIGN: "="
  REPORTED RESULT: 4.29
- COMPOUND: "O=C1CC(c2ccc(Br)cc2)=NN1c1ccc(Br)cc1 [P14]"
  QUALIFIER SIGN: "="
  REPORTED RESULT: 5.62
- COMPOUND: "O=C1CC(c2ccccc2)=NN1c1ccc(Br)cc1 [P4]"
  QUALIFIER SIGN: "="
  REPORTED RESULT: 5.31
- COMPOUND: "O=C1CC(c2ccc(C(F)(F)F)cc2)=NN1c1ccccc1 [P11]"
  QUALIFIER SIGN: "="
  REPORTED RESULT: 5.31
- COMPOUND: "O=C1CC(c2ccc(Br)cc2)=NN1c1cc(Cl)cc(Cl)c1 [P17]"
  QUALIFIER SIGN: "="
  REPORTED RESULT: 5.29

* * *

tested on: non-cancerous human lung fibroblast cells (HLF); test: Cytotoxicity, CellTiter Glo assay, non-cancerous human lung fibroblast cells; assay type: cell-based; conditions: Homo sapiens, Fibroblast, 72 h, read-out: IC50 Non-cancerous HLF
pIC50: −log10 of the molar value.
Recorded measurements of pIC50, one per entry
MEASUREMENT LABEL: pIC50

- COMPOUND SMILES: "O=C1CC(c2ccccc2)=NN1c1ccc(Br)cc1"
  REPORTED RESULT: 6.14
- COMPOUND SMILES: "O=C1CC(c2ccc(C(F)(F)F)cc2)=NN1c1ccccc1"
  REPORTED RESULT: 4.58
- COMPOUND SMILES: "O=C1CC(c2ccc([N+](=O)[O-])cc2)=NN1c1ccccc1"
  REPORTED RESULT: 4.57
- COMPOUND SMILES: "O=C1CC(c2ccc(Br)cc2)=NN1c1ccccc1"
  REPORTED RESULT: 4.21

meta.source: paper PMC10127554
